Origin of values: ChEMBL document CHEMBL3751717

Target: Proteinase-activated receptor 2 (Homo sapiens)
Experiment: Agonist activity at PAR2 in human HT-29 cells assessed as induction of ca2+ release at 10 uM after 1 hr by FLIPR assay relative to 2f-LIGRLO-NH2
Assay type: cell-based
Reported Activity values are given for each entry in this list.
A number alone suffices; assume %.

Consider the worked cases shown below.
CC[C@H](C)[C@H](NC(=O)[C@H](CC1CCCCC1)NC(=O)c1ccno1)C(=O)N(C)Cc1ccccc1	7
CC[C@H](C)[C@H](NC(=O)[C@H](CC1CCCCC1)NC(=O)c1ccno1)C(=O)NCc1cccc(F)c1	28
CC[C@H](C)[C@H](NC(=O)[C@H](CC1CCCCC1)NC(=O)c1ccno1)C(=O)NCc1ccccn1	83
CC[C@H](C)[C@H](NC(=O)[C@H](CC1CCCCC1)NC(=O)c1ccno1)C(=O)NCCc1ccc(OC)c(OC)c1	39
CCC(C)Oc1ccccc1CNC(=O)[C@@H](NC(=O)[C@H](CC1CCCCC1)NC(=O)c1ccno1)[C@@H](C)CC (stereo partly drawn)	6
CC[C@H](C)[C@H](NC(=O)[C@H](CC1CCCCC1)NC(=O)c1ccno1)C(=O)NCc1cccc(OC(F)(F)F)c1	44
CC[C@H](C)[C@H](NC(=O)[C@H](CC1CCCCC1)NC(=O)c1ccno1)C(=O)NCc1ccncc1	87

Now examine the next entry.
## Input Give Proteinase-activated receptor 2 (Homo sapiens) Activity for the following compound: CC[C@H](C)[C@H](NC(=O)[C@H](CC1CCCCC1)NC(=O)c1ccno1)C(=O)NCc1ccccc1F
## Output 40
